- assay-method-text: Partition coefficient, log P at pH 7.4
- Assay type: physicochemical
- recorded-conditions: octanol/water
quantity-measured: logD

CN(C)Cc1cc(OCC[18F])ccc1Sc1ccccc1N; 2.15
CN(C)Cc1cc(OCC[18F])ccc1Sc1ccc(Br)cc1N; 2.52
CN(C)Cc1cc(OCCC[18F])ccc1Sc1ccc(Br)cc1N; 3.3
CN(C)Cc1cc(OCC[18F])ccc1Sc1ccc(F)cc1N; 2.47
CN(C)Cc1cc(OCCC[18F])ccc1Sc1ccc(F)cc1N; 2.65
CN(C)Cc1cc(OCCC[18F])ccc1Sc1ccccc1N; 2.54
CN(C)Cc1cc(OCC[18F])ccc1Sc1ccc(Cl)cc1N; 2.71

* * *

- Test system: Nucleic Acid
- assay-method-text: Ratio of drug level in hypothalamus to cerebellum in rat after 30 mins
- Format: ADME, tissue-based
- recorded-conditions: in vivo, 0.5 h
quantity-measured: Ratio

CN(C)Cc1cc(OCCCF)ccc1Sc1ccc(F)cc1N; 2.66

1: CN(C)Cc1cc(OCCF)ccc1Sc1ccc(Br)cc1N
2: CN(C)Cc1cc(OCCCF)ccc1Sc1ccccc1N
Prompt: Field: lower Ratio | Options: 1 / 2 Write down the label attached to your selection.
Completion: 1

* * *

pKi: −log10 of the molar value.
These compounds were tested on Sodium-dependent noradrenaline transporter (Homo sapiens, UniProt P23975); pKi is the recorded read-out.
Sequence (P23975 whole entry): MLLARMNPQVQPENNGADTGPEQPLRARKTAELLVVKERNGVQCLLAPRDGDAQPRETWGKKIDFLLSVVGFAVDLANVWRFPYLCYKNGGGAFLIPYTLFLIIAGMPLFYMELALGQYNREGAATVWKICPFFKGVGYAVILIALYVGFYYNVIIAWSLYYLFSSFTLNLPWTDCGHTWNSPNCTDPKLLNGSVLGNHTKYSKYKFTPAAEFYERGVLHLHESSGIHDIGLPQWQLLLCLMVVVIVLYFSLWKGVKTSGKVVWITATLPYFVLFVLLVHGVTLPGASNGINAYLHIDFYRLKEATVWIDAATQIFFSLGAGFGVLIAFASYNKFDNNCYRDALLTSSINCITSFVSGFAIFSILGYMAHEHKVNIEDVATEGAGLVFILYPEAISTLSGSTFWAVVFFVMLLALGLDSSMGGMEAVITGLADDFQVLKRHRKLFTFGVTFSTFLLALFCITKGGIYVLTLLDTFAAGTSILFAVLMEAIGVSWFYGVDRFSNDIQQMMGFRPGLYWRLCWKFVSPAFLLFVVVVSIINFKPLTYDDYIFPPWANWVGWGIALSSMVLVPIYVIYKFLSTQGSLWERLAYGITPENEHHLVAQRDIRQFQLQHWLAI
quantity-measured: pKi

Guide cases for pKi, answers given:
CN(C)Cc1cc(OCCO)ccc1Sc1ccc(F)cc1N; 7.25
CN(C)Cc1cc(OCCF)ccc1Sc1ccc(F)cc1N; 7.43
CN(C)Cc1cc(OCCCO)ccc1Sc1ccc(Br)cc1N; 6.55
CN(C)Cc1cc(OCCF)ccc1Sc1ccc(Br)cc1N; 6.94

I: CN(C)Cc1cc(OCCF)ccc1Sc1ccc(Cl)cc1N
II: CN(C)Cc1cc(OCCF)ccc1Sc1ccccc1N
Prompt: // which entry has the larger pKi value, I or II ? Pick one and reply with its label.
Completion: II

* * *

- System: Nucleic Acid
- assay-method-text: Ratio of drug level in hypothalamus to cerebellum in rat after 120 mins
- Assay type: ADME, tissue-based
- recorded-conditions: in vivo, 2 h
quantity-measured: Ratio

Guide cases for Ratio, answers given:
CN(C)Cc1cc(OCCCF)ccc1Sc1ccc(F)cc1N; 4.36
CN(C)Cc1cc(OCCF)ccc1Sc1ccc(F)cc1N; 4.34
CN(C)Cc1cc(OCCF)ccc1Sc1ccccc1N; 7.83
CN(C)Cc1cc(OCC[18F])ccc1Sc1ccc(Br)cc1N; 3.7
CN(C)Cc1cc(OCCCF)ccc1Sc1ccccc1N; 7.67
CN(C)Cc1cc(OCCF)ccc1Sc1ccc(Cl)cc1N; 3.77

I: CN(C)Cc1cc(OCCF)ccc1Sc1ccc(Br)cc1N
II: CN(C)Cc1cc(OCC[18F])ccc1Sc1ccccc1N
Prompt: Which record would sort first by descending Ratio, I or II ? Indicate which entry you chose by stating its label.
Completion: II

* * *

Entries below carry reported pKi on Sodium-dependent dopamine transporter (Homo sapiens, UniProt Q01959).
Sequence (Q01959 whole entry): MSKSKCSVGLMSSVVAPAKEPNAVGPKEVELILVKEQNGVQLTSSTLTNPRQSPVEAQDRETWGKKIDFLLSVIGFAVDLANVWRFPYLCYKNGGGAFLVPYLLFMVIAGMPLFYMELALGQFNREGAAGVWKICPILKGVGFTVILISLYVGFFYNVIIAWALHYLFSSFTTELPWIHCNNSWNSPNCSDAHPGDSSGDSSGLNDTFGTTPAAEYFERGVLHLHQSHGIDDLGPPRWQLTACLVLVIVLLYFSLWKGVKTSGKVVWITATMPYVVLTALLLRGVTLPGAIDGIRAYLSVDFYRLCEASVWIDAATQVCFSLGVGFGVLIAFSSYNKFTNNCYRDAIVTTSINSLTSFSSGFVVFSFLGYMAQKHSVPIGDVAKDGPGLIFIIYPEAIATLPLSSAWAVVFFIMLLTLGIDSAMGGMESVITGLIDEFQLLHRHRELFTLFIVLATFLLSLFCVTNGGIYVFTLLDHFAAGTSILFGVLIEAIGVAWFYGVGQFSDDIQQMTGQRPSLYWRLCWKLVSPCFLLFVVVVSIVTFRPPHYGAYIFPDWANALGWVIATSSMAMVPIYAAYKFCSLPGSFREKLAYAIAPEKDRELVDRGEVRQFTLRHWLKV
pKi: −log10 of the molar value.
quantity-measured: pKi

Use the examples below as a reference point.
CN(C)Cc1cc(O)ccc1Sc1ccccc1N; 6.18
CN(C)Cc1cc(OCCO)ccc1Sc1ccccc1N; 6.45
CN(C)Cc1cc(OCCCO)ccc1Sc1ccccc1N; 6.35

1: CN(C)Cc1cc(OCCF)ccc1Sc1ccccc1N
2: CN(C)Cc1cc(OCCF)ccc1Sc1ccc(Cl)cc1N
Prompt: Compare 1 and 2 by numeric pKi and name the larger one. Could you answer with the label of the item you picked?
Completion: 1

* * *

- Tested on: Brain
- assay-method-text: Biodistribution in iv dosed rat brain after 120 mins
- Format: ADME, organism-based
- recorded-conditions: in vivo, 2 h
quantity-measured: Drug uptake (%ID)

Below, each entry is followed by its recorded Drug uptake result.
CN(C)Cc1cc(OCCF)ccc1Sc1ccc(Br)cc1N; 2.16
CN(C)Cc1cc(OCC[18F])ccc1Sc1ccc(Br)cc1N; 2.16
CN(C)Cc1cc(OCC[18F])ccc1Sc1ccccc1N; 0.63

A: CN(C)Cc1cc(OCCF)ccc1Sc1ccccc1N
B: CN(C)Cc1cc(OCCF)ccc1Sc1ccc(F)cc1N
C: CN(C)Cc1cc(OCCF)ccc1Sc1ccc(Cl)cc1N
Prompt: Please give the order of these compounds when sorted by Drug uptake, largest value leading. # output: labels, in the requested order
Completion: B, C, A
(B: 2.57 %ID, C: 1.46 %ID, A: 0.63 %ID)

* * *

- System: Brain
- assay-method-text: Biodistribution in iv dosed rat brain after 30 mins
- Format: ADME, organism-based
- recorded-conditions: in vivo, 0.5 h
quantity-measured: Drug uptake (%ID)

CN(C)Cc1cc(OCCCF)ccc1Sc1ccccc1N; 1.23
CN(C)Cc1cc(OCCF)ccc1Sc1ccccc1N; 1.85
CN(C)Cc1cc(OCCF)ccc1Sc1ccc(Br)cc1N; 1.88
CN(C)Cc1cc(OCC[18F])ccc1Sc1ccccc1N; 1.85

P: CN(C)Cc1cc(OCCF)ccc1Sc1ccc(F)cc1N
Q: CN(C)Cc1cc(OCCCF)ccc1Sc1ccc(Br)cc1N
Prompt: Pick one: P or Q . Which one has the lower reported Drug uptake? Indicate your choice by writing its label.
Completion: Q
(Q: 1.12 %ID, P: 2.23 %ID)

* * *

- Test system: Brain
- assay-method-text: Biodistribution in iv dosed rat brain after 120 mins
- Assay type: ADME, organism-based
- recorded-conditions: in vivo, 2 h
quantity-measured: Drug uptake (%ID)

CN(C)Cc1cc(OCCCF)ccc1Sc1ccc(Br)cc1N; 1.15

1: CN(C)Cc1cc(OCCCF)ccc1Sc1ccc(F)cc1N
2: CN(C)Cc1cc(OCCCF)ccc1Sc1ccccc1N
Prompt: Hi there, can you help? I need to know whether 1 or 2 has lower measured Drug uptake. Indicate which entry you chose by stating its label.
Completion: 2
(2: 0.59 %ID, 1: 1.32 %ID)

* * *

These records show Ki for Sodium-dependent serotonin transporter (Homo sapiens, UniProt P31645).
quantity-measured: Ki (nM)

CN(C)Cc1cc(O)ccc1Sc1ccccc1N; 17
COc1ccc(Sc2ccccc2N)c(CN(C)C)c1; 5
CN(C)Cc1cc(OCCCO)ccc1Sc1ccc(Br)cc1N; 0.21

1: CN(C)Cc1cc(OCCCF)ccc1Sc1ccccc1N
2: CN(C)Cc1cc(OCCF)ccc1Sc1ccc(Cl)cc1N
Prompt: API: POST /compare with 1 and 2 ; response names the item with higher Ki. Write the label of whichever entry you select.
Completion: 1
(1: 1.4 nM, 2: 0.03 nM)

* * *

- Test system: Nucleic Acid
- assay-method-text: Ratio of drug level in hypothalamus to cerebellum in rat after 30 mins
- Type: ADME, tissue-based
- recorded-conditions: in vivo, 0.5 h
quantity-measured: Ratio

I: CN(C)Cc1cc(OCCCF)ccc1Sc1ccc(Br)cc1N
II: CN(C)Cc1cc(OCCF)ccc1Sc1ccc(F)cc1N
Prompt: Which of the two gives a bigger number for Ratio: I or II ? // return label of chosen record
Completion: II
(II: 2.78, I: 1.93)

1: CN(C)Cc1cc(OCCF)ccc1Sc1ccc(Cl)cc1N
2: CN(C)Cc1cc(OCCF)ccc1Sc1ccccc1N
Prompt: Which gives the smaller Ratio number: 1 or 2 ? # respond with the chosen item's label
Completion: 1
(1: 2.36, 2: 3.79)

P: CN(C)Cc1cc(OCC[18F])ccc1Sc1ccc(Br)cc1N
Q: CN(C)Cc1cc(OCC[18F])ccc1Sc1ccccc1N
Prompt: Which has the higher Ratio, P or Q ? Please respond with the label that marks your chosen entry.
Completion: Q

* * *

- System: Brain
- assay-method-text: Biodistribution in iv dosed rat brain after 30 mins
- Type: ADME, organism-based
- recorded-conditions: in vivo, 0.5 h
quantity-measured: Drug uptake (%ID)

CN(C)Cc1cc(OCCF)ccc1Sc1ccc(Cl)cc1N; 1.72
CN(C)Cc1cc(OCCCF)ccc1Sc1ccc(F)cc1N; 1.43
CN(C)Cc1cc(OCC[18F])ccc1Sc1ccc(Br)cc1N; 1.88
